- Measurement Target: T1, SYNJ2BP, P57105
- T1 sequence (P57105 8-110, limits assumed, looked up): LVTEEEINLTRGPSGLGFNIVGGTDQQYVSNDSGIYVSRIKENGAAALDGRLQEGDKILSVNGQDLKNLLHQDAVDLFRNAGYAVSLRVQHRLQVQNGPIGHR
- Test Name: holdup assay
- Design: key: below the threshold = too weak to quantify, mostly under pKd 3.1 to 4
- Measurement Context: plain residues with an end cap or a label only (N-terminal biotin on a linker: ado-ado)
Attribute Measured: pKd

Take a look at these entries with their results.
* AEASVACSLC [PTGIR, P43119] | below the threshold
* SRSVVESDEL [MYPN, Q86TC9] | below the threshold
* IDESKKEWLI [CNTNAP2, Q9UHC6] | below the threshold
* REEPDHSTEV [CCRL2, O00421] | 5.14
* EDLEDEWEVI [TECPR2, O15040] | below the threshold

Please give pKd, item by item, for the list that follows.
1. QKAPTKEFYA [SDC2, P34741]
2. KRPEMTSSSV [MUC3A, MUC3B, Q02505;Q9H195]
3. NTANRRTTPV [CACNG2, Q9Y698]
4. DRIQSCLSDA [SBF1, O95248]
5. EDPRVEVTQF [SLC22A9, Q8IVM8]
6. RDPPAEWTRV [PTPN18, Q99952]
7. LPAVCYDIDI [PTTG2, Q9NZH5]

1: below the threshold; 2: 5.02; 3: 5.08; 4: below the threshold; 5: below the threshold; 6: below the threshold; 7: below the threshold

Source: paper PMC9482650
